Each item that follows carries a reported minimal effective dose.
ASSAY: Mouse Writhing Inhibition Assay
Type: in vivo, Cox standard strain albino male mice
ASSAY_CONTEXT: oral gavage 60 min before acetic acid 55 mg./kg. i.p., active = less than ten writhes, read-out: Minimum active oral dose, Mouse Writhing

// below: answered molecules
CC(=O)OC1CCN(c2nnc(-c3ccccc3C)c(-c3ccccc3C)n2)CC1	> 200 mg/kg
CC(=O)OC1CCCN(c2nnc(-c3ccc(C)cc3)c(-c3ccc(C)cc3)n2)C1 (stereo not drawn)	> 200 mg/kg
Cc1ccc(-c2nnc(N3CCC(OC(=O)c4ccccc4)CC3)nc2-c2ccc(C)cc2)cc1	> 200 mg/kg
OC1CCN(c2nnc(-c3ccc(Cl)cc3)c(-c3ccc(Cl)cc3)n2)CC1	> 25 mg/kg
CCOC(=O)C1CCN(c2nnc(-c3ccc(C)cc3)c(-c3ccc(C)cc3)n2)CC1	> 200 mg/kg

Now turn to the next molecule.
Given item `Cc1ccc(-c2nnc(N3CCC4(CC3)OCCO4)nc2-c2ccc(C)cc2)cc1` , the value recorded as its minimal effective dose is > 200 mg/kg

====

ASSAY: Metrazole Induced Convulsion Inhibition Assay
Format: in vivo, Cox standard strain albino male mice
ASSAY_CONTEXT: Mus musculus; oral gavage, 1 h before metrazole 110 mg./kg. i.p.; active = total score of 6 or less (3 mice, range 0-12); read-out: Minimum active oral dose, Metrazole
Each item that follows carries a reported minimal effective dose.

// below: answered molecules
Cc1ccc(-c2nnc(N3CCC(OS(C)(=O)=O)CC3)nc2-c2ccc(C)cc2)cc1	> 6.25 mg/kg
CC(=O)OC1CCN(c2nnc(-c3ccc(Cl)cc3)c(-c3ccc(Cl)cc3)n2)CC1	50 mg/kg
Cc1ccc(-c2nnc(N3CCC(OC(N)=O)CC3)nc2-c2ccc(C)cc2)cc1	> 6.25 mg/kg
Cc1ccc(-c2nnc(N3CCCCCC3)nc2-c2ccc(C)cc2)cc1	> 200 mg/kg
Cc1ccc(-c2nnc(N3CCC(OC(=O)c4ccccc4)CC3)nc2-c2ccc(C)cc2)cc1	> 200 mg/kg
CC(=O)OC1CCCN(c2nnc(-c3ccc(C)cc3)c(-c3ccc(C)cc3)n2)C1 (stereo not shown)	> 200 mg/kg
CCC(=O)OC1CCN(c2nnc(-c3ccc(C)cc3)c(-c3ccc(C)cc3)n2)CC1	12.5 mg/kg
CCOC(=O)C1CCN(c2nnc(-c3ccc(C)cc3)c(-c3ccc(C)cc3)n2)CC1	> 200 mg/kg

Given item `CC(=O)OC1CCN(c2nnc(-c3ccccc3C)c(-c3ccccc3C)n2)CC1` , the value recorded as its minimal effective dose is 200 mg/kg

Given item `Cc1ccc(-c2nnc(N3CCC(OC(=O)Oc4ccccc4)CC3)nc2-c2ccc(C)cc2)cc1` , the value recorded as its minimal effective dose is > 200 mg/kg

Given item Cc1ccc(-c2nnc(N3CCC(O)C3)nc2-c2ccc(C)cc2)cc1 (stereo not shown) , the value recorded as its minimal effective dose is > 200 mg/kg

Given item `CC(=O)OC1CCN(c2cnc(-c3ccc(C)cc3)c(-c3ccc(C)cc3)n2)CC1` , the value recorded as its minimal effective dose is 25 mg/kg

Given item Cc1ccc(-c2nnc(N3CCCC(O)C3)nc2-c2ccc(C)cc2)cc1 (stereo not shown) , the value recorded as its minimal effective dose is 50 mg/kg

====

EXPERIMENTAL_SYSTEM: GABA receptor
ASSAY: In vitro activation of GABA binding ([3H]GABA, Triton X-100 treated membrane protein)
ASSAY_CONTEXT: average of one or more tests, read-out: SC50 GABA (nanomolar concentration producing a 50% increase in binding)
PROPERTY_MEASURED: EC50 (nM)
Report the value in nM with no unit label.

Cc1ccc(-c2ncc(N3CCC(O)CC3)nc2-c2ccc(C)cc2)cc1	1200
CC(=O)OC1CCN(c2cnc(-c3ccc(C)cc3)c(-c3ccc(C)cc3)n2)CC1	7
CC(=O)OC1CCN(c2nnc(-c3ccc(C)cc3)c(-c3ccc(C)cc3)n2)C1 (stereo not drawn)	43
COC1CCN(c2nnc(-c3ccc(C)cc3)c(-c3ccc(C)cc3)n2)CC1	80
Cc1ccc(-c2nnc(N3CCCCCC3)nc2-c2ccc(C)cc2)cc1	2000
Cc1ccc(-c2nnc(N3CCC(OC(=O)C(C)(C)C)CC3)nc2-c2ccc(C)cc2)cc1	110

Given item `CC(=O)OC1CCN(c2nnc(-c3ccc(Cl)cc3)c(-c3ccc(Cl)cc3)n2)CC1` , the value recorded as its EC50 is 15

Given item `CC(=O)OC1CCN(c2nnc(-c3ccccc3C)c(-c3ccccc3C)n2)CC1` , the value recorded as its EC50 is 60
